Data origin, for the record: paper PMC10397247

Recorded interaction score by entry
# targetSystem: T1, O14
# T1 chain: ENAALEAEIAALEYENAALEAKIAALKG
# experimentalProtocol: two-hybrid library CC0;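 also: natural log of median RNA to DNA barcode read ratio; higher means stronger binding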
# measurementContext: mean of both orientations
Respond numerically, and do not add a unit to the figure.

Data request: I have this binder here, KNAALKAKIAALKYKNAALKAEIAALEG [O13] , and I need its recorded interaction score.
Data returned: 1.21

Data request: Same for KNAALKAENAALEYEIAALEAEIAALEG [O1]
Data returned: -2.71

Data request: Next: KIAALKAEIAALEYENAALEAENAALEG [O11]
Data returned: -2.7

Data request: Would you mind doing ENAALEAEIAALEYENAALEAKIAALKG [O14] as well?
Data returned: -2.52

Data request: // repeat for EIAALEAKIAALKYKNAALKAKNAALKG [O12] and report
Data returned: -2.03

Data request: Now consider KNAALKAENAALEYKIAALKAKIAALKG [O10] and answer again.
Data returned: -2.57
